SUBJECT OF TEST: Tyrosine-protein phosphatase YopH (Yersinia enterocolitica)
Sequence (P15273 whole entry): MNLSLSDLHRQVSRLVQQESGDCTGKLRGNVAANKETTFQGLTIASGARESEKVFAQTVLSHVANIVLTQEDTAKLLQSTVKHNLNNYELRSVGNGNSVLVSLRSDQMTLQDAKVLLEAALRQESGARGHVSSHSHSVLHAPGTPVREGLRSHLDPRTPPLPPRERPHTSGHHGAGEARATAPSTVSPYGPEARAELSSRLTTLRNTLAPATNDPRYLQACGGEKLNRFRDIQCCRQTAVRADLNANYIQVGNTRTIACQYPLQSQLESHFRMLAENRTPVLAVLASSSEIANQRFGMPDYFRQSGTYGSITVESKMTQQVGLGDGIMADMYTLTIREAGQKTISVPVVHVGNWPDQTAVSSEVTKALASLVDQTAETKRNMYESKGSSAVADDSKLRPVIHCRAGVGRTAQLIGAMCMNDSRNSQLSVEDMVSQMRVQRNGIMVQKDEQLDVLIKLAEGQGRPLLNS
TEST NAME: Non-competitive mixed inhibition of Yersinia enterocolitica YopH assessed as inhibition constant
REPORTED PROPERTY: pKi
# reply with the number alone; pKi is -log10 of concentration in mol/L

Note to self: pKi recorded for O=C(/C=C/c1ccc(O)c(O)c1)O[C@@H](C(=O)O)[C@@H](OC(=O)/C=C/c1ccc(O)c(O)c1)C(=O)O [CICHORIC ACID] was 4.17

###

SUBJECT OF TEST: UniProt:Q9Y2R2
Sequence (Q9Y2R2 whole entry): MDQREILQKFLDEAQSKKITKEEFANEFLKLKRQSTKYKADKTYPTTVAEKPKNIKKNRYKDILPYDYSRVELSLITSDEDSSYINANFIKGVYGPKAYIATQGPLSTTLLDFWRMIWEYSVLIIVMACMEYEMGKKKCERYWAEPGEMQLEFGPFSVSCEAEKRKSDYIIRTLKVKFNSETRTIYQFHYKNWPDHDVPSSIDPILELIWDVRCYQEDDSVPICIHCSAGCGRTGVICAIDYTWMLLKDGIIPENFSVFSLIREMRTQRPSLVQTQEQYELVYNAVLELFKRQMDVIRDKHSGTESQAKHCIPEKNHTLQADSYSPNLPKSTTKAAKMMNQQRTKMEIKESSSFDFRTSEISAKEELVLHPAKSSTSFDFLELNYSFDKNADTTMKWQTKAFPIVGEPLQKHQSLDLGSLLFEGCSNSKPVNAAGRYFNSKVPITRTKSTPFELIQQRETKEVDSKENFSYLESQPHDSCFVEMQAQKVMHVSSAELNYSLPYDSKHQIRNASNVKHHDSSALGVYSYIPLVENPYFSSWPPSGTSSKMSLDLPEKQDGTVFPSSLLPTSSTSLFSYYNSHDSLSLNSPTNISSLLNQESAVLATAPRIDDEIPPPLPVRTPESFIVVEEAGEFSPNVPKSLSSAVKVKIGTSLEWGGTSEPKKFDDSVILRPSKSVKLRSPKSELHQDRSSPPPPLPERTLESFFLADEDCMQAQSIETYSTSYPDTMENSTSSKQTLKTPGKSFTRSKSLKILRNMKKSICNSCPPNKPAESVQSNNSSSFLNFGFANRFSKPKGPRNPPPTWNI
TEST NAME: Inhibition of LYP (unknown origin) at 25 uM using pNPP as substrate relative to control
REPORTED PROPERTY: inhibition at 25 µM (%)
The reply should be a number in %, with the unit left off.

>  <STRUCTURE NOTATION>
COc1ccc(C(=O)/C=C/c2ccc(C(=O)O)cc2)c(OC)c1

>  <SUBJECT OF TEST>
UniProt:Q9Y2R2

>  <inhibition at 25 µM / %>
3.9

$$$$
>  <STRUCTURE NOTATION>
O=C(O)c1ccc(/C=C/C(=O)c2cccc([N+](=O)[O-])c2)cc1

>  <SUBJECT OF TEST>
UniProt:Q9Y2R2

>  <inhibition at 25 µM / %>
57.9

$$$$
>  <STRUCTURE NOTATION>
COc1ccc(C(=O)/C=C/c2ccc(C(=O)O)cc2)cc1OC

>  <SUBJECT OF TEST>
UniProt:Q9Y2R2

>  <inhibition at 25 µM / %>
4.2

$$$$
>  <STRUCTURE NOTATION>
O=C(O)c1ccc(/C=C/C(=O)c2ccccc2O)cc1

>  <SUBJECT OF TEST>
UniProt:Q9Y2R2

>  <inhibition at 25 µM / %>
11.7

$$$$
>  <STRUCTURE NOTATION>
Cc1ccc(C(=O)/C=C/c2ccc(C(=O)O)cc2)cc1

>  <SUBJECT OF TEST>
UniProt:Q9Y2R2

>  <inhibition at 25 µM / %>
9.5

$$$$
>  <STRUCTURE NOTATION>
COc1cccc(C(=O)/C=C/c2ccc(C(=O)O)cc2)c1

>  <SUBJECT OF TEST>
UniProt:Q9Y2R2

>  <inhibition at 25 µM / %>
6.8

$$$$

// next item, inhibition at 25 µM requested
Note to self: inhibition at 25 µM recorded for COc1ccc(OC)c(C(=O)/C=C/c2ccc(C(=O)O)cc2)c1 was 15.8
